target: human immunoproteasome β5i (Homo sapiens, UniProt P28062); construct: purchased Boston Biochem Inc; assay: IC50 against chymotryptic β5i activity of human immunoproteasome (96-well plate, Ac-ANW-AMC); format: biochemical; details: β5i; substrate Ac-ANW-AMC; read-out: IC50 Hu i-20S (Ac-ANW-AMC)
# IC50 listing for each entry below
Report the figure along with its unit, number first.

Need IC50 of Cc1cc(C(=O)N[C@@H](CC(=O)NC(C)(C)C)C(=O)NCCNC(=O)c2cccc(-c3cc[nH]n3)c2)no1 [PKS21287] , thanks. 1150 nM

Need IC50 of Cc1ccc(S(=O)(=O)N[C@@H](CC(=O)NC(C)(C)C)C(=O)NCCNC(=O)c2ccccc2F)cc1 [PKS21291] , thanks. 55 nM

Need IC50 of Cc1cc(C(=O)N[C@@H](CC(=O)NC(C)(C)C)C(=O)NCCNC(=O)c2cc(-c3ccccc3)ccn2)no1 [PKS21224] , thanks. 746 nM
